System: HGC-27 cells
runDescription: MTT cytotoxicity, HGC-27
Assay type: cell-based, human
measurementConditions: Homo sapiens, 72 h, mean values
Assignment: determine reported IC50 for the given compounds.
Numbers only, in µM.

smilesText | systemUnderTest | valueKind | unitInfo | reportedResult
CCCCCCNC(=S)NNC(=O)c1ccc(C)nc1-c1ccc2cc(OC)ccc2c1 | HGC-27 cells | IC50 | µM | 38.1

Record lookup: for HGC-27 cells, what IC50 belongs to `COc1ccc2cc(-c3ccc(C(=O)NNC(=O)NC4CCCCC4)c(C)n3)ccc2c1` ?
50.3

---

System: MRC-5 cells
runDescription: MTT cytotoxicity, MRC-5 normal cells
Format: cell-based
valueKind: IC50

Would you kindly share the measured IC50 for N.N.[Cl][Pt][Cl] [Cisplatin, reference compound] ?
> 50 µM
